Origin of measurements: PubChem BioAssay (EPA / NIEHS)

- Read-out: Pselectin, SELP (gene 6403)
- PROCEDURE_SUMMARY: BSK_4H_Pselectin: BioMAP Diversity Plus: 4H Assay for Pselectin Biomarker Activity (AID 2283026)
- ASSAY_CONTEXT: primary human endothelial cells (HUVEC); actives raise or lower the signal
Calls of active or inactive are those of the source. Rule for the calls: active = hit-call score of the fitted dose curve at least 0.9, where 1 is the maximum; inactive = score below 0.9.
Respond only with the outcome that fits, drawn from active, inactive

Look over these answered cases.
COMPOUND	LABEL
COc1nc(C)nc(NC(=O)NS(=O)(=O)c2ccccc2OCCCl)n1	inactive
CCCOC(=O)NCCCN(C)C	inactive
CCCCC(CC)COC(=O)c1ccccc1C(=O)O (stereo not drawn)	inactive

Qu. GET /call?item= O=C(O)C1(C(=O)Nc2ccc(Cl)cc2Cl)CC1 returns the recorded outcome of this test.
Ans. inactive

Qu. GET /call?item= CC(C)(C)[C@@H](O)[C@@H](Cc1ccc(Cl)cc1)n1cncn1 returns the recorded outcome of this test.
Ans. inactive

Qu. GET /call?item= CCOC(=O)NCCOc1ccc(Oc2ccccc2)cc1 returns the recorded outcome of this test.
Ans. inactive

Qu. GET /call?item= O=C(Nc1ccc([N+](=O)[O-])cc1Cl)c1cc(Cl)ccc1O returns the recorded outcome of this test.
Ans. active

Qu. GET /call?item= COC(=O)c1c(Cl)nn(C)c1S(=O)(=O)NC(=O)Nc1nc(OC)cc(OC)n1 returns the recorded outcome of this test.
Ans. inactive

Qu. GET /call?item= N[C@@H](Cc1cc(I)c(Oc2ccc(O)c(I)c2)c(I)c1)C(=O)O returns the recorded outcome of this test.
Ans. inactive

Qu. GET /call?item= C#C[C@]1(O)CC[C@H]2[C@@H]3CCC4=CC(=O)CC[C@@H]4[C@H]3CC[C@@]21CC returns the recorded outcome of this test.
Ans. inactive

Qu. GET /call?item= CCOC(=O)COc1cc(-n2ncc(C(F)(F)F)c(C)c2=O)c(F)cc1Cl returns the recorded outcome of this test.
Ans. inactive

Qu. GET /call?item= CCN(Cc1c(F)cccc1Cl)c1c([N+](=O)[O-])cc(C(F)(F)F)cc1[N+](=O)[O-] returns the recorded outcome of this test.
Ans. inactive

Qu. GET /call?item= CCCCOC(=O)C(C)Oc1ccc(Oc2ccc(C(F)(F)F)cn2)cc1 (stereo not drawn) returns the recorded outcome of this test.
Ans. inactive

###

- PROCEDURE_SUMMARY: TOX21_p53_BLA_p5_viability: Viability Assessment in the Tox21 HCT-116 p53 Agonism Beta-lactamase Assay, Phase 5 (AID 2283600)
Inconclusive results are not listed. Activity calls are given as the source filed them. How the source made its calls: active means hit-call score of the fitted dose curve at least 0.9, where 1 is the maximum; inconclusive means response in the unintended direction; inactive means score below 0.9.
Respond only with the outcome that fits, drawn from active, inactive

Look over these answered cases.
COMPOUND	LABEL
Cc1nn(C)c(Oc2ccccc2)c1C=NOCc1ccc(C(=O)OC(C)(C)C)cc1	inactive
CC(C)(C)[C@@H](O)[C@@H](Cc1ccc(Cl)cc1)n1cncn1	inactive
CCC(C)OC(=O)N1CCCCC1CCO (stereo unspecified)	inactive
COC(=O)CSc1cc(N=c2sc(=O)n3n2CCCC3)c(F)cc1Cl	inactive
CCCN(CCC)c1c([N+](=O)[O-])cc(C(F)(F)F)c(N)c1[N+](=O)[O-]	active
CCOC(=O)C(C)Oc1ccc(Oc2nc3ccc(Cl)cc3o2)cc1 (stereo unspecified)	inactive
CN(C)C(=O)Nc1ccc(Cl)c(Cl)c1	inactive
N[C@@H](Cc1cc(I)c(Oc2ccc(O)c(I)c2)c(I)c1)C(=O)O	inactive
CCCCC(CC)COC(=O)c1ccccc1C(=O)O (stereo unspecified)	inactive
COCCO	inactive

Qu. GET /call?item= CC(=O)[C@H]1CC[C@H]2[C@@H]3CCC4=CC(=O)CC[C@]4(C)[C@H]3CC[C@]12C returns the recorded outcome of this test.
Ans. inactive
